Test system: 636577-100-R-J1-PDC complex spheroid viability
Experimental Details: Anticancer human tumor 636577-100-R-J1-PDC patient-derived endometrial adenocarcinoma cell line growth inhibition [GQUAD]
Protocol Conditions: curve of first compound; second compound 0.1 µM
IC50 strictly under 700 nM means Condition met; at 700 nM or over means Condition not met.

| Compound | Assigned Category |
| --- | --- |
| CC(C)(O)C1CCC(Nc2ccc3ncc(-c4cccc(C(F)(F)F)c4)n3n2)CC1 (stereo unspecified) + CN(C)c1ccc(Nc2c3ccc(NC(=O)CCN4CCCC4)cc3nc3cc(NC(=O)CCN4CCCC4)ccc23)cc1 | Condition not met |
| CC1COCCN1c1cc(-c2ccnn2C)c2ccnc(-c3ccn[nH]3)c2n1 (stereo unspecified) + CN(C)c1ccc(Nc2c3ccc(NC(=O)CCN4CCCC4)cc3nc3cc(NC(=O)CCN4CCCC4)ccc23)cc1 | Condition met |
| COc1ccc([C@@H](O)c2cc(-c3ncnc4cc(N5CCOCC5)ccc34)c(F)cc2Cl)nn1 + Cc1cnc(CNC(=O)c2c(=O)c3ccc(N4CCCN(C)CC4)nc3n3c2sc2ccccc23)cn1 | Condition met |
| C=CCn1c(=O)c2cnc(Nc3ccc(N4CCN(C)CC4)cc3)nc2n1-c1cccc(C(C)(C)O)n1 + Cc1[nH]c2ccc(F)cc2c1-c1nc2c3cccnc3c3ncccc3c2[nH]1 | Condition not met |
| Cn1ncnc1[C@H]1c2n[nH]c(=O)c3cc(F)cc(c23)N[C@@H]1c1ccc(F)cc1 + Cc1[nH]c2ccc(F)cc2c1-c1nc2c3cccnc3c3ncccc3c2[nH]1 | Condition met |
| CC1COCCN1c1cc(C2(S(C)(=N)=O)CC2)nc(-c2ccnc3[nH]ccc23)n1 (stereo unspecified) + Cc1[nH]c2ccc(F)cc2c1-c1nc2c3cccnc3c3ncccc3c2[nH]1 | Condition met |
| COc1cc(C2c3cc4c(cc3C(OC3OC5COC(C)OC5C(O)C3O)C3COC(=O)C23)OCO4)cc(OC)c1O (stereo unspecified) + Cc1cnc(CNC(=O)c2c(=O)c3ccc(N4CCCN(C)CC4)nc3n3c2sc2ccccc23)cn1 | Condition met |
| CC(C)n1c(=O)n(C)c2cnc3cc(F)c(-c4ccc(OCCCN5CCCCC5)nc4)cc3c21 + CN(C)c1ccc(Nc2c3ccc(NC(=O)CCN4CCCC4)cc3nc3cc(NC(=O)CCN4CCCC4)ccc23)cc1 | Condition not met |
| C=CC(=O)N1CCN(c2nc(=O)n(-c3c(C)ccnc3C(C)C)c3nc(-c4c(O)cccc4F)c(F)cc23)C(C)C1 (stereo unspecified) + Cc1cnc(CNC(=O)c2c(=O)c3ccc(N4CCCN(C)CC4)nc3n3c2sc2ccccc23)cn1 | Condition met |
| Cc1cccc(N(C)C(=O)C2C(O)CCN2c2nc(C)cc(C(F)(F)F)c2C#N)c1 (stereo unspecified) + Cc1cnc(CNC(=O)c2c(=O)c3ccc(N4CCCN(C)CC4)nc3n3c2sc2ccccc23)cn1 | Condition met |
| Cc1[nH]c2ccccc2c1CCNCc1ccc(/C=C/C(=O)NO)cc1 + Cc1cnc(CNC(=O)c2c(=O)c3ccc(N4CCCN(C)CC4)nc3n3c2sc2ccccc23)cn1 | Condition met |

* * *

System: 636577-100-R-J1-PDC complex spheroid viability
Experimental Details: Anticancer human tumor 636577-100-R-J1-PDC cell line growth inhibition [GQUAD];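 also: viability read after seven days of drug exposure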;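 as to viability, T/C: luminescence signal used as a proxy for viable cells; 100% = DMSO vehicle control wells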
Protocol Conditions: second compound 0.316 µM; first compound 0.00316 µM; stronger effect = lower value

| Compound | Measured Target | Units Symbol | viability, T/C |
| --- | --- | --- | --- |
| Cn1ncnc1[C@H]1c2n[nH]c(=O)c3cc(F)cc(c23)N[C@@H]1c1ccc(F)cc1 + Cc1[nH]c2ccc(F)cc2c1-c1nc2c3cccnc3c3ncccc3c2[nH]1 | 636577-100-R-J1-PDC complex spheroid viability | % | 102 |
| CCc1c2c(nc3ccc(O)cc13)-c1cc3c(c(=O)n1C2)COC(=O)[C@]3(O)CC + CN(C)c1ccc(Nc2c3ccc(NC(=O)CCN4CCCC4)cc3nc3cc(NC(=O)CCN4CCCC4)ccc23)cc1 | 636577-100-R-J1-PDC complex spheroid viability | % | 23.1 |
| Cc1[nH]c2ccccc2c1CCNCc1ccc(/C=C/C(=O)NO)cc1 + Cc1cnc(CNC(=O)c2c(=O)c3ccc(N4CCCN(C)CC4)nc3n3c2sc2ccccc23)cn1 | 636577-100-R-J1-PDC complex spheroid viability | % | 24.2 |
| Cc1[nH]c2ccccc2c1CCNCc1ccc(/C=C/C(=O)NO)cc1 + CN(C)c1ccc(Nc2c3ccc(NC(=O)CCN4CCCC4)cc3nc3cc(NC(=O)CCN4CCCC4)ccc23)cc1 | 636577-100-R-J1-PDC complex spheroid viability | % | 62.5 |
| Cn1ncnc1[C@H]1c2n[nH]c(=O)c3cc(F)cc(c23)N[C@@H]1c1ccc(F)cc1 + CN(C)c1ccc(Nc2c3ccc(NC(=O)CCN4CCCC4)cc3nc3cc(NC(=O)CCN4CCCC4)ccc23)cc1 | 636577-100-R-J1-PDC complex spheroid viability | % | 63.7 |
